System: crabgrass
Experiment: Test B pre/postemergence crabgrass
Assay type: in vivo, Digitaria sanguinalis
Conditions: Postemergence, Rate 500 g/ha; scale 0 to 10, 0 is no effect, 10 is complete control
Exercise: for every item that follows, state its recorded Plant response rating, Crabgrass.

[ask] GET /values?readout=Plant response rating, Crabgrass&system=crabgrass&item= COCCOCn1c(=O)on(C(=O)N(c2ccc(F)cc2F)C(C)C)c1=O [Compound 505]
[reply] 9

[ask] GET /values?readout=Plant response rating, Crabgrass&system=crabgrass&item= Cc1noc(C)c1Cn1c(=O)on(C(=O)N(c2ccc(F)cc2F)C(C)C)c1=O [Compound 510]
[reply] 9

[ask] GET /values?readout=Plant response rating, Crabgrass&system=crabgrass&item= CC(C)=CCn1c(=O)on(C(=O)N(c2ccc(F)cc2F)C(C)C)c1=O [Compound 515]
[reply] 9

[ask] GET /values?readout=Plant response rating, Crabgrass&system=crabgrass&item= CC(C)C(=O)Cn1c(=O)on(C(=O)N(c2ccc(F)cc2F)C(C)C)c1=O [Compound 486]
[reply] 9

[ask] GET /values?readout=Plant response rating, Crabgrass&system=crabgrass&item= CC(C)N(C(=O)n1oc(=O)n(CC2=CCCN(C)C2)c1=O)c1ccccc1 [Compound 497]
[reply] 0

----------
Test system: pigweed
Test: Test B pre/postemergence pigweed
Format: in vivo, Amaranthus retroflexus
Conditions: Preemergence, Rate 500 g/ha; scale 0 to 10 (0 no effect, 10 complete control)
Exercise: for every item that follows, state its recorded Redroot pigweed plant response rating.
Reply with the value as a number alone.

[ask] GET /values?readout=Redroot pigweed plant response rating&system=pigweed&item= CC(C)N(C(=O)n1oc(=O)n(CC2CO2)c1=O)c1ccc(F)cc1 (centres unmarked) [Compound 188]
[reply] 0

[ask] GET /values?readout=Redroot pigweed plant response rating&system=pigweed&item= CCN(C(=O)n1oc(=O)n(C(C)C)c1=O)c1nncs1 [Compound 190]
[reply] 0

[ask] GET /values?readout=Redroot pigweed plant response rating&system=pigweed&item= Cc1ccc(N(C(=O)n2oc(=O)n(C(C)C)c2=O)C(C)C)cc1 [Compound 132]
[reply] 7

[ask] GET /values?readout=Redroot pigweed plant response rating&system=pigweed&item= CC(C)N(C(=O)n1oc(=O)[nH]c1=O)c1ccc(F)cc1 [Compound 164]
[reply] 0

[ask] GET /values?readout=Redroot pigweed plant response rating&system=pigweed&item= CC(C)N(C(=O)n1oc(=O)n([C@@H](C)c2ccccc2)c1=O)c1ccccc1 [Compound 173]
[reply] 5

----------
Exercise: for every item that follows, state its recorded Plant response rating, Giant foxtail.
System: giant foxtail
Assay: Test B pre/postemergence giant foxtail
Type: in vivo, Setaria faberii
Details: Postemergence, Rate 250 g/ha; scale 0 to 10, 0 is no effect, 10 is complete control

[ask] Plant response rating, Giant foxtail lookup needed for Cc1nc(Cl)sc1C(C)n1c(=O)on(C(=O)N(c2ccc(F)cc2)C(C)C)c1=O (stereo not shown) , thanks.
[reply] 2

[ask] Plant response rating, Giant foxtail lookup needed for Cc1nc(Cl)sc1C(C)n1c(=O)on(C(=O)N(c2ccc(F)cc2F)C(C)C)c1=O (stereo not shown) , thanks.
[reply] 0

[ask] Plant response rating, Giant foxtail lookup needed for `CC(C)N(C(=O)n1oc(=O)n(C(CF)CF)c1=O)c1ccccc1` , thanks.
[reply] 9

[ask] Plant response rating, Giant foxtail lookup needed for `CC(C)N(C(=O)n1oc(=O)n(C2(C)CC2)c1=O)c1ccc(F)cc1` , thanks.
[reply] 9

----------
Tested on: purple nutsedge
Assay: Test B pre/postemergence purple nutsedge
Format: in vivo, Cyperus rotundus
Settings: Postemergence, Rate 125 g/ha; scale of 0 to 10 where 0 is no effect and 10 is complete control
READOUT_LABEL: Nutsedge plant response rating
Reply with the value as a number alone.

[ask] Nutsedge plant response rating lookup needed for `COc1ccc(N(C(=O)n2oc(=O)n(C(C)C)c2=O)C(C)C)cc1` , thanks.
[reply] 0

[ask] Nutsedge plant response rating lookup needed for CC(C)N(C(=O)n1oc(=O)n(C(C)c2ccccc2)c1=O)c1ccc(Cl)cc1 (stereo not shown) , thanks.
[reply] 0

[ask] Nutsedge plant response rating lookup needed for `CCOP(=O)(Cn1c(=O)on(C(=O)N(c2ccc(F)cc2F)C(C)C)c1=O)OCC` , thanks.
[reply] 0

[ask] Nutsedge plant response rating lookup needed for `CC(C)N(C(=O)n1oc(=O)n(N(C)c2ccccc2)c1=O)c1ccc(F)cc1` , thanks.
[reply] 0

----------
Exercise: for every item that follows, state its recorded Bedstraw plant response rating.
Tested on: bedstraw
Assay: Test B pre/postemergence bedstraw
Format: in vivo, Galium aparine
Settings: Rate 125 g/ha, Postemergence; scale of 0 to 10 where 0 is no effect and 10 is complete control

[ask] Bedstraw plant response rating lookup needed for CCOC(=O)C(C)N(C(=O)n1oc(=O)n(C(C)C)c1=O)c1ccc(F)cc1 (stereo not shown) , thanks.
[reply] 0

[ask] Bedstraw plant response rating lookup needed for `CCC=CCn1c(=O)on(C(=O)N(c2ccc(F)cc2)C(C)C)c1=O` , thanks.
[reply] 2

[ask] Bedstraw plant response rating lookup needed for `CC(=O)OCn1c(=O)on(C(=O)N(c2ccc(F)cc2)C(C)C)c1=O` , thanks.
[reply] 0

[ask] Bedstraw plant response rating lookup needed for `CC(Cl)=CCn1c(=O)on(C(=O)N(c2ccc(F)cc2)C(C)C)c1=O` , thanks.
[reply] 5

----------
System: surinam grass
Experiment: Test B pre/postemergence surinam grass
Format: in vivo, Brachiaria decumbens
Details: Postemergence, Rate 62 g/ha; scale 0 to 10, 0 is no effect, 10 is complete control
Exercise: for every item that follows, state its recorded Plant response rating, B. signalgrass.
Reply with the value as a number alone.

[ask] Plant response rating, B. signalgrass lookup needed for `CCOC(Cn1c(=O)on(C(=O)N(c2ccc(Cl)cc2)C(C)C)c1=O)OCC` , thanks.
[reply] 0

[ask] Plant response rating, B. signalgrass lookup needed for `CC(C)N(C(=O)n1oc(=O)n(CC(F)F)c1=O)c1ccc(Cl)cc1` , thanks.
[reply] 0

[ask] Plant response rating, B. signalgrass lookup needed for `C=C(Cn1c(=O)on(C(=O)N(c2ccccc2)C(C)C)c1=O)C(C)C` , thanks.
[reply] 0

[ask] Plant response rating, B. signalgrass lookup needed for `CC(C)N(C(=O)n1oc(=O)n(CCCCCl)c1=O)c1ccc(F)cc1` , thanks.
[reply] 0

[ask] Plant response rating, B. signalgrass lookup needed for `CC(C)N(C(=O)n1oc(=O)n(Cc2nnc(Cl)s2)c1=O)c1ccc(F)cc1F` , thanks.
[reply] 0

[ask] Plant response rating, B. signalgrass lookup needed for `COc1ccc(N(C(=O)n2oc(=O)n(C(C)C)c2=O)C(C)C)cc1` , thanks.
[reply] 0

----------
Exercise: for every item that follows, state its recorded Plant response rating, Blackgrass.
Tested on: blackgrass
Assay: Test B pre/postemergence blackgrass
Assay type: in vivo, Alopecurus myosuroides
Details: Preemergence, Rate 125 g/ha; scale of 0 to 10 where 0 is no effect and 10 is complete control
Reply with the value as a number alone.

[ask] Plant response rating, Blackgrass lookup needed for `CC(C)N(C(=O)n1oc(=O)n(CC(F)F)c1=O)c1ccc(Cl)cc1` , thanks.
[reply] 6

[ask] Plant response rating, Blackgrass lookup needed for CCOC(=O)CC(C(=O)OCC)n1c(=O)on(C(=O)N(c2ccc(Cl)cc2)C(C)C)c1=O (stereo not drawn) , thanks.
[reply] 0

[ask] Plant response rating, Blackgrass lookup needed for Cc1nc(Cl)sc1C(C)n1c(=O)on(C(=O)N(c2ccccc2)C(C)C)c1=O (stereo not drawn) , thanks.
[reply] 0

[ask] Plant response rating, Blackgrass lookup needed for `CC[Si](C)(C)Cn1c(=O)on(C(=O)N(c2ccc(F)cc2)C(C)C)c1=O` , thanks.
[reply] 0

[ask] Plant response rating, Blackgrass lookup needed for `CCN(C(=O)n1oc(=O)n(C2CCCCCC2)c1=O)C1CCCCC1` , thanks.
[reply] 0

[ask] Plant response rating, Blackgrass lookup needed for CC(C)N(C(=O)n1oc(=O)n(C(C)C2CC2)c1=O)c1ccccc1 (stereo not drawn) , thanks.
[reply] 10

[ask] Plant response rating, Blackgrass lookup needed for CC(C)N(C(=O)n1oc(=O)n(C(C)C2CCC2)c1=O)c1ccc(F)cc1F (stereo not drawn) , thanks.
[reply] 2

[ask] Plant response rating, Blackgrass lookup needed for `CC(C)N(C(=O)n1oc(=O)n(C(CF)CF)c1=O)c1ccccc1` , thanks.
[reply] 10

[ask] Plant response rating, Blackgrass lookup needed for `CC(C)N(C(=O)n1oc(=O)n(CCC(F)(F)F)c1=O)c1ccc(F)cc1` , thanks.
[reply] 9

[ask] Plant response rating, Blackgrass lookup needed for `C=C[Si](C)(C)Cn1c(=O)on(C(=O)N(c2ccc(Cl)cc2)C(C)C)c1=O` , thanks.
[reply] 9

[ask] Plant response rating, Blackgrass lookup needed for `CC(C)N(C(=O)n1oc(=O)n(CCC#N)c1=O)c1ccccc1` , thanks.
[reply] 0

[ask] Plant response rating, Blackgrass lookup needed for `CC(C)N(C(=O)n1oc(=O)n(CCCCl)c1=O)c1ccccc1` , thanks.
[reply] 8

[ask] Plant response rating, Blackgrass lookup needed for `CC(C)N(C(=O)n1oc(=O)n(CC2CCC2)c1=O)c1ccc(F)cc1` , thanks.
[reply] 7

[ask] Plant response rating, Blackgrass lookup needed for CCOP(=O)(OCC)C(C)n1c(=O)on(C(=O)N(c2ccccc2)C(C)C)c1=O (stereo not drawn) , thanks.
[reply] 0

[ask] Plant response rating, Blackgrass lookup needed for CC(C)N(C(=O)n1oc(=O)n(C(C)C(=S)N(C)C)c1=O)c1ccc(Cl)cc1 (stereo not drawn) , thanks.
[reply] 7
